Value source: PubChem BioAssay (NCI)

- Test system: HOP-62 NSCLC
- Measurement Description: NCI tumour cell line growth inhibition, 48 h
Hi there, I'd appreciate the recorded TGI for every entry that follows.
Answer format: numeric, µM implied, no suffix.

Q: Given `C=C1C(=O)O[C@H]2[C@@H]3O[C@@](C)(CC/C=C(\C)CCC[C@@H]2C)[C@H](O)C[C@@H]13` , state its recorded TGI.
Result: 23.1

Q: Given CC(C)C1CC(CO)(CNc2nc(N)nc(Cl)c2C=O)C1 (stereo unspecified) , state its recorded TGI.
Result: 37

Q: Given `N=C(N)c1ccc(-c2ccc(-c3cccs3)s2)cc1F` , state its recorded TGI.
Result: 3.07
